assay: Cytotoxicity Determination (CCK-8, without addition of virus); assay type: cell-based; conditions: human, 50% cytotoxicity concentration (CC50)
Measured Metric: CC50 at 5 days

[
  {
    "Molecule": "COc1cc(C(=O)NC[C@@](O)(c2cc(C(C)(C)N)cc(-c3ccc(F)c(Cl)c3)n2)C(F)(F)F)ccc1OCCO [Compound 549]",
    "CC50 at 5 days": "10 to 100 µM"
  }
]

Give one value of CC50 at 5 days per listed molecule.
1. COc1cc(C(=O)NCC(O)(c2cc(C(C)(C)N)c(OC)c(-c3ccc(F)cc3)n2)C(F)(F)F)ccc1OC1CC1 (stereo not drawn) [Compound 594]
2. COc1cc(C(=O)NCC(O)(c2cc3c(c(-c4ccc(F)cc4)n2)OCC3(C)N)C(F)(F)F)ccc1OC[C@@H](C)O (stereo partly drawn) [Compound 556]
3. COc1cc(C(=O)NCC(O)(Cn2ccnn2)c2ccc(OC)c(-c3ccc(F)c(Cl)c3)n2)ccc1OCCO (stereo not drawn) [Compound 192]

10 to 100 µM
10 to 100 µM
> 100 µM

Give one value of CC50 at 5 days per listed molecule.
1. CCOc1ccc(C(=O)NCC(C)(O)c2ccc(OC)c(-c3c[nH]c4c(F)cccc34)n2)cc1OC (racemic) [Compound 116]
2. COc1cc(C(=O)NCC(=O)c2cc3c(c(-c4ccc(F)c(Cl)c4)n2)OCC3(C)O)ccc1OC1CC1 (stereo not drawn) [Compound 473]
3. COc1cc(C(=O)NCC(C)(O)c2ccc(OC)c(-c3ccc(F)c(Br)c3)n2)ccc1OCCO (stereo not drawn) [Compound 167]

1. 10 to 100 µM
2. 10 to 100 µM
3. 10 to 100 µM

* * *

system: Respiratory Syncytial Virus (RSV) long strain; experiment: microbe, parasite or virus in culture; assay type: cell-based; details: human respiratory syncytial virus, HEp-2, 120 h, read-out: 50% effective concentration (EC50), HEp-2 cells infected with RSV long strain, 5 days, CCK-8 readout; Tables A and B list compounds by EC50 band
pEC50: −log10 of the molar value.
Measured Metric: pEC50

[
  {
    "Compound": "COc1cc(C(=O)NCC(O)(c2cc3c(c(-c4ccc(F)c(Cl)c4)n2)OCCC3(C)C)C(F)(F)F)ccc1OC[C@@H](C)O (stereo partly shown)",
    "pEC50": "> 6.00"
  },
  {
    "Compound": "Cc1nc(C(=O)NCC(O)(c2cc(C(C)(C)N)cc(-c3ccc(F)cc3)n2)C(F)(F)F)co1 (stereo not shown)",
    "pEC50": "4.30 to 6.00"
  },
  {
    "Compound": "COc1cc(C(=O)NCC(F)(c2ccc(OC)c(-c3ccc(F)c(Cl)c3)n2)C(F)(F)F)ccc1OC1CCNC1=O (stereo not shown)",
    "pEC50": "> 6.00"
  },
  {
    "Compound": "COc1cc(C(=O)NCC(C)(O)c2ccc(OC)c(-c3ccc(F)c(Cl)c3)n2)ccc1OCC(F)F (stereo not shown)",
    "pEC50": "> 6.00"
  },
  {
    "Compound": "COc1cc(C(=O)NCC(O)(c2cc(C(C)(C)NCC(=O)O)cc(-c3ccc(F)c(Cl)c3)n2)C(F)(F)F)ccc1OC1CC1 (stereo not shown)",
    "pEC50": "> 6.00"
  }
]

Give one value of pEC50 per listed compound.
1. COc1cc(C(=O)NCC(O)(c2cc3c(c(-c4ccc(F)c(Cl)c4)n2)OCC3(C)C)C(F)(F)F)cc2cccnc12 (stereo not shown)
2. COc1cc(C(=O)NC[C@@](O)(c2cc(C(C)(C)N)cc(-c3ccc(F)cc3)n2)C(F)(F)F)ccc1OCC(N)=O

["> 6.00", "4.30 to 6.00"]
